# assay: Human liver microsome incubation
# Assay type: in vitro ADME
# assayConditions: maximal achievable bioavailability (1−E), extrapolated from human microsomal clearance
Parameter Human microsomes MAB %: see the listing below.
readoutLabel: Human microsomes MAB % (%)

1) CCN(CC)C(=O)COC(=O)[C@H]1CCCN1C(=O)CCCCC(=O)N1CCC[C@@H]1C(=O)OCC(=O)N(CC)CC
90
2) COC(=O)[C@H]1CCCN1C(=O)CCCCC(=O)N1CCC[C@@H]1C(=O)OC
90
3) CC(C)NC(=O)COC(=O)[C@H]1CCCN1C(=O)CCCCC(=O)N1CCC[C@@H]1C(=O)OCC(=O)NC(C)C
50
